FYI, the data here is from patent US20030199590A1.

Quick list: pIC50 per entry.
Target: FP receptors (Bos taurus, UniProt P37289)
Construct: Washed total particulate bovine corpus luteum membranes; from tissue; host or cells: bovine corpus luteum membranes
Sequence (P37289 whole entry): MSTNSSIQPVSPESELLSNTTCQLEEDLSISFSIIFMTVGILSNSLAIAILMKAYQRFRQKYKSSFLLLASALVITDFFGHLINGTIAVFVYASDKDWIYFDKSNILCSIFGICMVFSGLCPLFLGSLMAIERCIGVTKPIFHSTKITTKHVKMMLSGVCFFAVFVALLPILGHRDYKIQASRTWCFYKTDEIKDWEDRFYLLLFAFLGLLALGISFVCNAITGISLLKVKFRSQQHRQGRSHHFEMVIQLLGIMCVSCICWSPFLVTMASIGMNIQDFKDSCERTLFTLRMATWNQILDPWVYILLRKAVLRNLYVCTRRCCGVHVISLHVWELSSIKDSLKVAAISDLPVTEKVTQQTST
Experiment: FP receptor binding assay ([3H]PGF2α, bovine corpus luteum membranes)
Settings: Table 1; [3H]PGF2α, bovine corpus luteum membranes; free acid form
Description: Non-specific binding was defined with 1-10 μM unlabeled PGF2α or fluprostenol. The assays were terminated by vacuum filtration (using Whatman GF/B glass fiber filter previously soaked in 0.3% polyethyleneimine) and the data analyzed by a non-linear, iterative, curve-fitting computer program.
pIC50 field: float, defined as -log10 of concentration (mol/L).

// lookup pIC50 for O=C(O)CC/C=C\CC[C@H]1[C@@H](O)CO[C@@H]1/C=C/[C@H](O)COc1ccccc1 [Compound 50]
5.29

Please give the result for O=C(O)CCC/C=C\C[C@H]1[C@@H](O)CO[C@@H]1/C=C/[C@H](O)COc1cccc(Cl)c1 [Compound 14] too.
5.14

Please give the result for O=C(O)CCC/C=C\C[C@H]1CC[C@@H](O)[C@@H]1CC[C@@H](O)CCc1ccccc1 [Compound 2] too.
6.51

Please give the result for O=C(O)CC/C=C\CC[C@H]1[C@@H](O)CO[C@@H]1/C=C/[C@H](O)COc1cccc(C(F)(F)F)c1 [Compound 51] too.
5.00

Please give the result for O=C(O)CCC/C=C\C[C@@H]1[C@@H](OC[C@@H](O)COc2ccccc2)[C@H](O)C[C@@H]1O [Compound 69] too.
6.56

Please give the result for O=C(O)CCC/C=C\C[C@H]1[C@@H](O)CO[C@@H]1/C=C/[C@@H](O)CCc1ccccc1 [Compound 28] too.
5.72

Please give the result for O=C(O)CCC/C=C\C[C@@H]1[C@@H](CC[C@@H](F)COc2cccc(Cl)c2)[C@H](O)C[C@@H]1O [Compound 17] too.
7.59
